Molecular target: SIRT1 (Homo sapiens, UniProt Q96EB6)
Sequence (Q96EB6 1-747): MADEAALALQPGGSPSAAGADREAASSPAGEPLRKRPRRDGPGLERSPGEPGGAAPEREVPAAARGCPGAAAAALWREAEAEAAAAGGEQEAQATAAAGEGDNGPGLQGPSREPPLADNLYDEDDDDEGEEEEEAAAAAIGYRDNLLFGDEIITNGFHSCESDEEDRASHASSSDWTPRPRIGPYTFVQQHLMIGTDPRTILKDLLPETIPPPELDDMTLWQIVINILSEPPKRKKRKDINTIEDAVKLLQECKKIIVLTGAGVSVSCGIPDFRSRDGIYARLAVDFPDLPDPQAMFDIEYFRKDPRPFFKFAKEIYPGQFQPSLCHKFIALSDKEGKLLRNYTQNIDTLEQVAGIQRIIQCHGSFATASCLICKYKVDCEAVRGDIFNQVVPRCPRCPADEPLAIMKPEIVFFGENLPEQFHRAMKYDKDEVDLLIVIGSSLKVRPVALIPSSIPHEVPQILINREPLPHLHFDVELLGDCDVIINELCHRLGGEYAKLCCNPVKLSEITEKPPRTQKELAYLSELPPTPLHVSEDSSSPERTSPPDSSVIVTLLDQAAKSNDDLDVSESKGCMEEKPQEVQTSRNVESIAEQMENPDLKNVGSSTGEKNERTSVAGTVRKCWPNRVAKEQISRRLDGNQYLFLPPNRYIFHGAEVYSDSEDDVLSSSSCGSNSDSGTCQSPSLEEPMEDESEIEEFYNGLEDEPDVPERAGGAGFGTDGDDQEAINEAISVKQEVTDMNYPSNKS
Assay: mass spectrometry based SIRT1 deacetylation assay (activation)
Assay type: biochemical
Conditions: 0.5 μM peptide substrate, 120 μM βNAD+, 10 nM SIRT1, 25 min at 25° C.; NA = not active in the assay
experimental endpoint: EC1.5 (concentration of test compound that results in 150% activation of SIRT1) (NM)

// below: answered molecules
>>> df
                      smiles_representation  reported_result
0  C[C@@H]1CN(Cc2cnc3sc(-c4ccccc4NC(=O)c4cccc(-c5ccncc5)c4)nc3c2)C[C@H](C)N1              683
1  CC(C)NCc1cnc2sc(-c3ccccc3NC(=O)c3cccc(-c4ccccn4)c3)nc2c1              937
2  O=C(Nc1ccccc1-c1nc2cc(CN3CCCC3=O)cnc2s1)c1cccc(-c2ccccc2)c1              557
3  O=C(Nc1ccccc1-c1nc2cc(CN3CCOCC3)cnc2s1)c1cccc2ccccc12             3020
4  O=C(Nc1ccccc1-c1nc2cc(CN3CCOCC3)cnc2s1)c1cnc2ccccc2c1            69840
5  COCCN1CCN(Cc2cnc3sc(-c4ccccc4NC(=O)c4cccc(-c5ccncc5)c4)nc3c2)CC1              492

1 = O=C(Nc1ccccc1-c1nc2cc(CN3CCOCC3)cnc2s1)c1cncc(-c2ccccc2F)c1
2 = CC(C)NCc1cnc2sc(-c3ccccc3NC(=O)c3cccc(-c4cccnc4)c3)nc2c1
// query Which value of EC1.5 (concentration of test compound that results in 150% activation of SIRT1) is numerically greater: that of 1 or that of 2 ? Your answer should be the label attached to the chosen record.
// result 2

----------
Molecular target: UniProt:Q96EB6
Sequence (Q96EB6 1-747): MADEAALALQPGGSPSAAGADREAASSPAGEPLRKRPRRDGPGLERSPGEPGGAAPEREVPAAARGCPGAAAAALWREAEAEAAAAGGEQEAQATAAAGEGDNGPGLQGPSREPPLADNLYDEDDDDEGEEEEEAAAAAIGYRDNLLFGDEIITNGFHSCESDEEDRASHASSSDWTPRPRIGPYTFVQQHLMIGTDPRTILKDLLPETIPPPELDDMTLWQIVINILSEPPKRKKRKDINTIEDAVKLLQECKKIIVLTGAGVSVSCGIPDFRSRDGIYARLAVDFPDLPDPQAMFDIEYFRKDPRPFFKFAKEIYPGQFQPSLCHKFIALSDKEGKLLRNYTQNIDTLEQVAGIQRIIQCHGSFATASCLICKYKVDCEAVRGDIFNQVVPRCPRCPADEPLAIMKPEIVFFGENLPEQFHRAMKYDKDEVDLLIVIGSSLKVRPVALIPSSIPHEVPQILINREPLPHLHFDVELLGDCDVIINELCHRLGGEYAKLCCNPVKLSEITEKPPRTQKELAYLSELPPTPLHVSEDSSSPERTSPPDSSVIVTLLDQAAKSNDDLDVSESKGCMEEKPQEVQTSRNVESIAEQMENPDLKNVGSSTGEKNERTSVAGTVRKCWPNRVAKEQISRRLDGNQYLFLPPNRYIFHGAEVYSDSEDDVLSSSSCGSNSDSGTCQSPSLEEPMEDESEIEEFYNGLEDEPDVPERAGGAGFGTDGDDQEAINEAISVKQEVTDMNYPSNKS
Experiment: mass spectrometry based SIRT1 deacetylation assay (activation)
Format: biochemical
Conditions: 0.5 μM peptide substrate, 120 μM βNAD+, 10 nM SIRT1, 25 min at 25° C.; read-out: % FOLD ACT. (percent maximum fold activation of SIRT1)
experimental endpoint: Emax (%)

                      smiles_representation  readout_units  reported_result
0  O=C(Nc1ccccc1-c1nc2cc(CN3CCNCC3)cnc2s1)c1nc2ccccc2s1              %              333
1  O=C(Nc1ccccc1-c1nc2cc(CN3CCOCC3)cnc2s1)c1ccc2cccnc2n1              %              219
2  O=C(Nc1ccccc1-c1nc2cc(Cn3ccnc3)cnc2s1)c1ccc2ccccc2n1              %              182
3  O=C(Nc1ccccc1-c1nc2cc(CN3CCNCC3)cnc2s1)c1ccc2ncsc2c1              %              298
4  COCCN1CCN(Cc2cnc3sc(-c4ccccc4NC(=O)c4cc(-c5ccccc5)cn4C)nc3c2)CC1              %              272
5  O=C(Nc1ccccc1-c1nc2cc(CN3CCOCC3)cnc2s1)c1cn2cc(F)ccc2n1              %              227

I = O=C(Nc1ccccc1-c1nc2cc(CN3CCNCC3)cnc2s1)c1nc2ccc(F)cc2o1
II = O=C(Nc1ccccc1-c1nc2cc(CN3CCNCC3)cnc2s1)c1ccnc(-c2ccccc2)n1
// query Which value of Emax is numerically greater: that of I or that of II ? Your answer should be the label attached to the chosen record.
// result II
(II: 183%, I: 100%)

----------
molecular target: SIRT1 (Homo sapiens); assay: mass spectrometry based SIRT1 deacetylation assay (activation); assay type: biochemical; conditions: 0.5 μM peptide substrate, 120 μM βNAD+, 10 nM SIRT1, 25 min at 25° C.; read-out: % FOLD ACT. (percent maximum fold activation of SIRT1)
experimental endpoint: Emax (%)

>>> print(df.to_string())
                      smiles_representation       measured_target  reported_result
0  COCCN1CCN(Cc2cnc3sc(-c4ccccc4NC(=O)c4cccc(-c5ccc(F)cc5F)n4)nc3c2)CC1  SIRT1 (Homo sapiens)              378

1 = O=C1CN(Cc2cnc3sc(-c4ccccc4NC(=O)c4ccc5ccccc5n4)nc3c2)CCN1
2 = COCCN1CCN(Cc2cnc3sc(-c4ccccc4NC(=O)c4cccc(-c5ccccc5)c4)nc3c2)CC1
// query Of 1 and 2 , which carries the smaller reported Emax figure? Your answer should be the label attached to the chosen record.
// result 1
(1: 273%, 2: 533%)

I = O=C(Nc1ccccc1-c1nc2cc(CN3CCOCC3)cnc2s1)c1cccc(-c2ccccc2)c1
II = COCCN1CCN(Cc2cnc3sc(-c4ccccc4NC(=O)c4cccc(-c5cccc(F)c5F)n4)nc3c2)CC1
// query Which value of Emax is numerically greater: that of I or that of II ? Your answer should be the label attached to the chosen record.
// result II

----------
Target: SIRT1 (Homo sapiens, UniProt Q96EB6)
Sequence (Q96EB6 1-747): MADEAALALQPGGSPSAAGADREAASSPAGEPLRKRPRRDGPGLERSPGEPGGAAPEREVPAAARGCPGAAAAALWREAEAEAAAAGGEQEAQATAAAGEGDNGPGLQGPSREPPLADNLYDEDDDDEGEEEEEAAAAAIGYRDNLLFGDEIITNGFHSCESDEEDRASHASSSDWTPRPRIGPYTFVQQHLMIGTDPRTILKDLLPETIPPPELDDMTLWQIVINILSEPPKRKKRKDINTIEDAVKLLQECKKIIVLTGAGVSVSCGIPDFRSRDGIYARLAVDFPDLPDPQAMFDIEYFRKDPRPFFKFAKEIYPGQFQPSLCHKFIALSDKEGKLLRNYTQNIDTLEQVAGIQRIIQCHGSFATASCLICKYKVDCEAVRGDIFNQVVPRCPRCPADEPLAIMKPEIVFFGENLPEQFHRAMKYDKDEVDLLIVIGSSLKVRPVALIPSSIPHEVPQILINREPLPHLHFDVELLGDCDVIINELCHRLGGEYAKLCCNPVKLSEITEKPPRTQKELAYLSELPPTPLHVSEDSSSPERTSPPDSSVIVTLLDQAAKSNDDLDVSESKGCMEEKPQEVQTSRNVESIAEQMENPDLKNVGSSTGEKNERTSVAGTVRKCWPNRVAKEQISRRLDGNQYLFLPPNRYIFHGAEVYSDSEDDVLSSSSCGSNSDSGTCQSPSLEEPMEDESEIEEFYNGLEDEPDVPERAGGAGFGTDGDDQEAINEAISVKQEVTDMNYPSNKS
Experiment: mass spectrometry based SIRT1 deacetylation assay (activation)
Format: biochemical
Settings: 0.5 μM peptide substrate, 120 μM βNAD+, 10 nM SIRT1, 25 min at 25° C.; read-out: % FOLD ACT. (percent maximum fold activation of SIRT1)
experimental endpoint: Emax (%)

// below: answered compounds
>>> df
                      smiles_representation  experimental_endpoint  reported_result
0  O=C(Nc1ccccc1-c1nc2cc(CN3CC[C@@H](F)C3)cnc2s1)c1cccc(-c2ncccn2)c1                   Emax              168
1  O=C(Nc1ccccc1-c1nc2cc(CN3CCNCC3)cnc2s1)c1cccc(-c2ccccn2)c1                   Emax              471
2  Cc1cc(C(=O)Nc2ccccc2-c2nc3cc(CN4CCOCC4)cnc3s2)nc(-c2ccccc2)n1                   Emax              500
3  O=C(Nc1ccccc1-c1nc2cc(CN3CC[C@@H](F)C3)cnc2s1)c1cccc(-n2cnnn2)c1                   Emax              166
4  O=C(Nc1ccccc1-c1nc2cc(CN3CCC(F)CC3)cnc2s1)c1ccc2ccccc2n1                   Emax              146

a = O=C(Nc1ccccc1-c1nc2cc(CN3CCNCC3)cnc2s1)c1cn2cc(F)ccc2n1
b = O=C(Nc1ccccc1-c1nc2cc(CN3CCCC3=O)cnc2s1)c1cccc(-c2ccccc2)c1
c = COCCN1CCN(Cc2cnc3sc(-c4ccccc4NC(=O)c4cccc(-c5ccc(C(F)(F)F)cc5)n4)nc3c2)CC1
// query Order the 3 compounds from highest to lowest Emax. When ranking, write the labels in the order the request describes.
// result c, a, b
(c: 461%, a: 314%, b: 216%)

1 = CC(C)NCc1cnc2sc(-c3ccccc3NC(=O)c3cccc(-c4cccnc4)c3)nc2c1
2 = CC(C)NCc1cnc2sc(-c3ccccc3NC(=O)c3cccc(-c4ccccn4)c3)nc2c1
// query Of 1 and 2 , which carries the smaller reported Emax figure? Your answer should be the label attached to the chosen record.
// result 1

A = CC(C)NCc1cnc2sc(-c3ccccc3NC(=O)c3cccc(-c4ccccc4)c3)nc2c1
B = O=C(Nc1ccccc1-c1nc2cc(CN3CCNCC3)cnc2s1)c1cccc(-c2nnn[nH]2)c1
// query Of A and B , which carries the smaller reported Emax figure? Your answer should be the label attached to the chosen record.
// result A

1 = Cc1nc(-c2cccnc2)sc1C(=O)Nc1ccccc1-c1nc2cc(CN[C@H]3CCNC3)cnc2s1
2 = COCCN1CCN(Cc2cnc3sc(-c4ccccc4NC(=O)c4cccc(-c5ccccc5Cl)n4)nc3c2)CC1
// query Of 1 and 2 , which carries the smaller reported Emax figure? Your answer should be the label attached to the chosen record.
// result 1
